Source: ChEMBL document CHEMBL3785007

test system: Homo sapiens; experiment: AUC in healthy Chinese subject (8 subjects) with homozygous mutant of NAT2 genotype at 300 mg, po administered after overnight fast by HPLC method; assay type: ADME, organism-based; details: in vivo
MEASURED PROPERTY: AUC (ng·h/mL)
Give bare numbers, in ng·h/mL.

Form field: reported AUC of NNC(=O)c1ccncc1
42200

----------
system: Homo sapiens; assay: AUC in healthy Chinese subject (8 subjects) with heterozygous mutant of NAT2 genotype at 300 mg, po administered after overnight fast by HPLC method; type: ADME, organism-based; conditions: in vivo
MEASURED PROPERTY: AUC (ng·h/mL)
One number for each entry, in ng·h/mL.

Form field: reported AUC of NNC(=O)c1ccncc1 [ISONIAZID]
16300
